Every entry's value here was drawn from PubChem BioAssay AID1963980.

System: 475296-252-R-J1-PDC spheroid viability;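 further: spheroids exposed to agents for seven days before readout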
Assay: Anticancer human tumor 475296-252-R-J1-PDC patient-derived rectal carcinoma cell line growth inhibition [PI3K]
Details: curve of first compound; second compound 1 µM; spheroids with HUVEC and MSC
pIC50: −log10 of the molar value.
In this section, each of the compounds is paired with its reported pIC50.
Metric Name: pIC50

- Compound: "Cn1ncnc1[C@H]1c2n[nH]c(=O)c3cc(F)cc(c23)N[C@@H]1c1ccc(F)cc1 + CC(Nc1ccc2c(c1)OCCn1cc(N3C(=O)OCC3C(F)F)nc1-2)C(N)=O"
  Value Reported: "< 7.00"
- Compound: "CC(=O)c1c(C)c2cnc(Nc3ccc(N4CCNCC4)cn3)nc2n(C2CCCC2)c1=O + CC(Nc1ncnc2nc[nH]c12)c1cc2cccc(Cl)c2c(=O)n1-c1ccccc1"
  Value Reported: "< 7.00"
- Compound: "Cn1nccc1Nc1nccc(-c2ccn(C(CO)c3ccc(Cl)c(F)c3)c(=O)c2)n1 (stereo not given) + COc1c(OCCCN2CCOCC2)ccc2c3n(c(=NC(=O)c4cnc(N)nc4)nc12)CCN3"
  Value Reported: 6.89
- Compound: "CCN1CCN(Cc2ccc(Nc3ncc(F)c(-c4cc(F)c5nc(C)n(C(C)C)c5c4)n3)nc2)CC1 + CC(Nc1ccc2c(c1)OCCn1cc(N3C(=O)OCC3C(F)F)nc1-2)C(N)=O"
  Value Reported: "< 6.00"
- Compound: "CCN1CCN(Cc2ccc(Nc3ncc(F)c(-c4cc(F)c5nc(C)n(C(C)C)c5c4)n3)nc2)CC1 + COc1c(OCCCN2CCOCC2)ccc2c3n(c(=NC(=O)c4cnc(N)nc4)nc12)CCN3"
  Value Reported: "< 6.00"
- Compound: "CC1(C)CCC(CN2CCN(c3ccc(C(=O)NS(=O)(=O)c4ccc(NCC5CCOCC5)c([N+](=O)[O-])c4)c(Oc4cnc5[nH]ccc5c4)c3)CC2)=C(c2ccc(Cl)cc2)C1 + CC(Nc1ncnc2nc[nH]c12)c1cc2cccc(Cl)c2c(=O)n1-c1ccccc1"
  Value Reported: "< 5.00"
- Compound: "CCN1CCN(Cc2ccc(Nc3ncc(F)c(-c4cc(F)c5nc(C)n(C(C)C)c5c4)n3)nc2)CC1 + Cc1nc(NC(=O)N2CCCC2C(N)=O)sc1-c1ccnc(C(C)(C)C(F)(F)F)c1"
  Value Reported: "< 6.00"
- Compound: "CNC(=O)c1ccc(N2C(=S)N(c3ccc(C#N)c(C(F)(F)F)c3)C(=O)C2(C)C)cc1F + CC(Nc1ncnc2nc[nH]c12)c1cc2cccc(Cl)c2c(=O)n1-c1ccccc1"
  Value Reported: "< 5.00"
- Compound: "C#Cc1c(F)ccc2cc(O)cc(-c3ncc4c(N5CC6CCC(C5)N6)nc(OCC56CCCN5CC(F)C6)nc4c3F)c12 (stereo not given) + Cc1nc(NC(=O)N2CCCC2C(N)=O)sc1-c1ccnc(C(C)(C)C(F)(F)F)c1"
  Value Reported: 5.35
- Compound: "Cn1ncc(Cl)c1-c1cc(C(=O)NC(CN)Cc2cccc(F)c2)sc1Cl (stereo not given) + COc1c(OCCCN2CCOCC2)ccc2c3n(c(=NC(=O)c4cnc(N)nc4)nc12)CCN3"
  Value Reported: 6.05
- Compound: "C[C@@H](NC(=O)c1ncnc(N)c1Cl)c1ncc(C(=O)Nc2cc(C(F)(F)F)c(Cl)cn2)s1 + Cc1nc(NC(=O)N2CCCC2C(N)=O)sc1-c1ccnc(C(C)(C)C(F)(F)F)c1"
  Value Reported: "< 5.00"
- Compound: "Cn1ncnc1[C@H]1c2n[nH]c(=O)c3cc(F)cc(c23)N[C@@H]1c1ccc(F)cc1 + Cc1nc(NC(=O)N2CCCC2C(N)=O)sc1-c1ccnc(C(C)(C)C(F)(F)F)c1"
  Value Reported: "< 7.00"
- Compound: "C#Cc1c(F)ccc2cc(O)cc(-c3ncc4c(N5CC6CCC(C5)N6)nc(OCC56CCCN5CC(F)C6)nc4c3F)c12 (stereo not given) + CC(Nc1ncnc2nc[nH]c12)c1cc2cccc(Cl)c2c(=O)n1-c1ccccc1"
  Value Reported: 5.20
- Compound: "CC(=O)c1c(C)c2cnc(Nc3ccc(N4CCNCC4)cn3)nc2n(C2CCCC2)c1=O + Cc1nc(NC(=O)N2CCCC2C(N)=O)sc1-c1ccnc(C(C)(C)C(F)(F)F)c1"
  Value Reported: "< 7.00"
- Compound: "Cn1nccc1Nc1nccc(-c2ccn(C(CO)c3ccc(Cl)c(F)c3)c(=O)c2)n1 (stereo not given) + CC(Nc1ccc2c(c1)OCCn1cc(N3C(=O)OCC3C(F)F)nc1-2)C(N)=O"
  Value Reported: 5.45
